- studyTarget: Acetylcholinesterase (Electrophorus electricus)
- Sequence (O42275 whole entry): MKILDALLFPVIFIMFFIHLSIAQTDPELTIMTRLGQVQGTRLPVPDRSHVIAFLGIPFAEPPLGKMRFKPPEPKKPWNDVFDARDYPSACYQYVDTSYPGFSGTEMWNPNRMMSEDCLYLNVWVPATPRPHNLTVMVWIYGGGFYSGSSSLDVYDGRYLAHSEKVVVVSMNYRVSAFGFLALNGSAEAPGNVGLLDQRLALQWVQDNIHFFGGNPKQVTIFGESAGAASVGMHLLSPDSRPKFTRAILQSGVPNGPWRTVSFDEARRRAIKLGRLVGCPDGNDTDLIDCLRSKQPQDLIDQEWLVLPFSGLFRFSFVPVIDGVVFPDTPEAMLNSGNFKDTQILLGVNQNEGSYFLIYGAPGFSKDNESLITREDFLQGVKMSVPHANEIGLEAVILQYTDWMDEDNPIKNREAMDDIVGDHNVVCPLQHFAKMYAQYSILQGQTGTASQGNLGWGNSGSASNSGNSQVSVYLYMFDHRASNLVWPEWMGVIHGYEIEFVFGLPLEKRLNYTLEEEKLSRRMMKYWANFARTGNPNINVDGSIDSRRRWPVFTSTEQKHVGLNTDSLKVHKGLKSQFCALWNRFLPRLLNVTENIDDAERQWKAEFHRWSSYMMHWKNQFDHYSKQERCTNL
Exercise: for every item that follows, state its recorded IC50.
Numbers only, in µM.

A selection of reference data follows.
Oc1ccc(OCc2nn3c(-c4cccnc4)nnc3s2)cc1 | 3.09
Clc1ccc(C2=Nn3c(nnc3-c3cccnc3)SC2)cc1 | 15.1
Cc1occc1-c1nn2c(-c3cccnc3)nnc2s1 | 37.7

Then there is this compound:
c1cncc(-c2nnc3sc(-c4ccc[nH]4)nn23)c1 has a reported IC50 of 13.7

====

Exercise: for every item that follows, state its recorded inhibition.
- studyTarget: UniProtKB O42275
- assayOverview: Inhibition of electric eel AChE at 100 uM by Ellman's method
One number for each entry, in %.

A selection of reference data follows.
Cc1ccc(C2=Nn3c(nnc3-c3cccnc3)SC2)cc1 | 28.7
COc1ccc(C2=Nn3c(nnc3-c3cccnc3)SC2)cc1 | 15.2

// each molecule listed below needs its inhibition
1. Fc1ccc(Cc2nn3c(-c4cccnc4)nnc3s2)cc1
2. Fc1ccc(-c2nn3c(-c4cccnc4)nnc3s2)cc1Cl
3. Fc1cc(Cl)ccc1-c1nn2c(-c3cccnc3)nnc2s1
4. COc1ccc(OCc2nn3c(-c4cccnc4)nnc3s2)cc1
5. Fc1ccc(C2=Nn3c(nnc3-c3cccnc3)SC2)cc1
6. CCOc1ccc(Cc2nn3c(-c4cccnc4)nnc3s2)cc1

[A]
1. 32.3
2. 48.4
3. 36.2
4. 39.5
5. 40.8
6. 38.4

c1cncc(-c2nnc3n2N=C(c2cccc4ccccc24)CS3)c1 has a reported inhibition of 17.2

====

- System: NCI-H157
- assayOverview: Cytotoxicity against human NCI-H157 cells by sulforhodamine B assay
- Format: functional, cell-based
Field 'label' (enum: fulfilled / not fulfilled). Set to fulfilled when IC50 is strictly under 2000 nM; else not fulfilled.

Worked examples follow.
CCOc1ccc(Cc2nn3c(-c4cccnc4)nnc3s2)cc1 | not fulfilled
Clc1ccc(C2=Nn3c(nnc3-c3cccnc3)SC2)cc1Cl | fulfilled
Fc1ccc(C2=Nn3c(nnc3-c3cccnc3)SC2)cc1 | fulfilled

[Q] IC50 under 2000 nM? Item: Cc1occc1-c1nn2c(-c3cccnc3)nnc2s1
[A] not fulfilled

[Q] IC50 under 2000 nM? Item: O=[N+]([O-])c1ccc(C2=Nn3c(nnc3-c3cccnc3)SC2)cc1
[A] fulfilled

[Q] IC50 under 2000 nM? Item: COc1ccc(C2=Nn3c(nnc3-c3cccnc3)SC2)cc1
[A] fulfilled

[Q] IC50 under 2000 nM? Item: Cc1ccc(C2=Nn3c(nnc3-c3cccnc3)SC2)cc1
[A] not fulfilled

[Q] IC50 under 2000 nM? Item: Cc1ccccc1OCc1nn2c(-c3cccnc3)nnc2s1
[A] not fulfilled

====

- Test system: Vero
- assayOverview: Cytotoxicity against African green monkey Vero cells by sulforhodamine B assay
- Format: cell-based
- Set-up: concentration or dose not given beside the values
- reportedConditions: chlorocebus sabaeus
Field 'label' (enum: y / n). Set to y when Activity is strictly under 20%; else n.

c1cncc(-c2nnc3sc(-c4ccc[nH]4)nn23)c1 | y

[Q] Activity under 20%? Item: Oc1ccccc1OCc1nn2c(-c3cccnc3)nnc2s1
[A] n

[Q] Activity under 20%? Item: c1cncc(-c2nnc3sc(-c4ccco4)nn23)c1
[A] n

[Q] Activity under 20%? Item: Fc1ccc(Cc2nn3c(-c4cccnc4)nnc3s2)cc1
[A] n

[Q] Activity under 20%? Item: CCOc1ccc(Cc2nn3c(-c4cccnc4)nnc3s2)cc1
[A] n

[Q] Activity under 20%? Item: O=[N+]([O-])c1ccc(C2=Nn3c(nnc3-c3cccnc3)SC2)cc1
[A] y

[Q] Activity under 20%? Item: Cc1ccccc1OCc1nn2c(-c3cccnc3)nnc2s1
[A] n

[Q] Activity under 20%? Item: COc1ccc(OCc2nn3c(-c4cccnc4)nnc3s2)cc1
[A] n

[Q] Activity under 20%? Item: COc1ccc(C2=Nn3c(nnc3-c3cccnc3)SC2)cc1
[A] n

====

Quick record of IC50 values for Cholinesterase (Homo sapiens, UniProt P06276).
Numbers only, in µM.

c1cncc(-c2nnc3sc(-c4ccc[nH]4)nn23)c1 | 13.7
Cc1occc1-c1nn2c(-c3cccnc3)nnc2s1 | 58.6
COc1ccc(OCc2nn3c(-c4cccnc4)nnc3s2)cc1 | 55.8
Fc1ccc(Cc2nn3c(-c4cccnc4)nnc3s2)cc1 | 79.9
Oc1ccccc1OCc1nn2c(-c3cccnc3)nnc2s1 | 3.02

// each compound listed below needs its IC50
1. O=[N+]([O-])c1ccc(C2=Nn3c(nnc3-c3cccnc3)SC2)cc1
2. Fc1ccc(-c2nn3c(-c4cccnc4)nnc3s2)cc1Cl
3. CCOc1ccc(Cc2nn3c(-c4cccnc4)nnc3s2)cc1
4. COc1ccc(C2=Nn3c(nnc3-c3cccnc3)SC2)cc1
5. Cc1ccc(C2=Nn3c(nnc3-c3cccnc3)SC2)cc1
6. c1cncc(-c2nnc3sc(-c4ccco4)nn23)c1
7. c1cncc(-c2nnc3n2N=C(c2cccc4ccccc24)CS3)c1
8. Oc1ccc(OCc2nn3c(-c4cccnc4)nnc3s2)cc1

[A]
1. 1.09
2. 10.3
3. 70.7
4. 0.781
5. 25.4
6. 6.03
7. 15.9
8. 0.585

// each compound listed below needs its IC50
1. CN(C)C(=O)Oc1cccc([N+](C)(C)C)c1 [NEOSTIGMINE]
2. Fc1ccc(C2=Nn3c(nnc3-c3cccnc3)SC2)cc1
3. Clc1ccc(C2=Nn3c(nnc3-c3cccnc3)SC2)cc1
4. Fc1cc(Cl)ccc1-c1nn2c(-c3cccnc3)nnc2s1
5. Cc1ccc(OCc2nn3c(-c4cccnc4)nnc3s2)cc1
6. c1ccc(-c2ccc(C3=Nn4c(nnc4-c4cccnc4)SC3)cc2)cc1
7. Clc1ccc(C2=Nn3c(nnc3-c3cccnc3)SC2)cc1Cl

[A]
1. 16.3
2. 4.92
3. 9.82
4. 37.4
5. 4.76
6. 18.9
7. 64.8

====

Quick record of pIC50 values for UniProtKB O42275.
Numbers only, as −log10 of the molar value.

// each compound listed below needs its pIC50
1. O=[N+]([O-])c1ccc(C2=Nn3c(nnc3-c3cccnc3)SC2)cc1
2. c1ccc(-c2ccc(C3=Nn4c(nnc4-c4cccnc4)SC3)cc2)cc1
3. Oc1ccccc1OCc1nn2c(-c3cccnc3)nnc2s1
4. Clc1ccc(C2=Nn3c(nnc3-c3cccnc3)SC2)cc1Cl
5. Cc1ccc(OCc2nn3c(-c4cccnc4)nnc3s2)cc1
6. c1cncc(-c2nnc3sc(-c4ccco4)nn23)c1

[A]
1: 4.74; 2: 4.40; 3: 4.45; 4: 4.41; 5: 4.95; 6: 4.67

====

Exercise: for every item that follows, state its recorded IC50.
- System: NCI-H157
- assayOverview: Cytotoxicity against human NCI-H157 cells by sulforhodamine B assay
- Assay type: functional, cell-based

A selection of reference data follows.
Fc1ccc(OCc2nn3c(-c4cccnc4)nnc3s2)cc1 | 1940 nM
Oc1ccc(OCc2nn3c(-c4cccnc4)nnc3s2)cc1 | 3010 nM
c1cncc(-c2nnc3sc(-c4ccc[nH]4)nn23)c1 | 5140 nM

Then there is this compound:
Fc1cc(Cl)ccc1-c1nn2c(-c3cccnc3)nnc2s1 has a reported IC50 of 1870 nM

====

- System: Vero
- assayOverview: Cytotoxicity against African green monkey Vero cells by sulforhodamine B assay
- Format: cell-based
- Set-up: concentration or dose not given beside the values
- reportedConditions: chlorocebus sabaeus
experimentalEndpoint: Activity (%)
Answers are plain numbers, in %.

A selection of reference data follows.
Oc1ccc(OCc2nn3c(-c4cccnc4)nnc3s2)cc1 | 20.4
c1cncc(-c2nnc3n2N=C(c2cccc4ccccc24)CS3)c1 | 23.1
Cc1ccc(C2=Nn3c(nnc3-c3cccnc3)SC2)cc1 | 27.3
Clc1ccc(C2=Nn3c(nnc3-c3cccnc3)SC2)cc1Cl | 22.2
Fc1cc(Cl)ccc1-c1nn2c(-c3cccnc3)nnc2s1 | 26.7

// each compound listed below needs its Activity
1. c1cncc(-c2nnc3sc(-c4ccoc4)nn23)c1
2. Cc1occc1-c1nn2c(-c3cccnc3)nnc2s1
3. c1ccc(-c2ccc(C3=Nn4c(nnc4-c4cccnc4)SC3)cc2)cc1
4. Cc1ccc(OCc2nn3c(-c4cccnc4)nnc3s2)cc1
5. Fc1ccc(-c2nn3c(-c4cccnc4)nnc3s2)cc1Cl
6. Fc1ccc(OCc2nn3c(-c4cccnc4)nnc3s2)cc1
7. CC[C@]1(O)C[C@H]2CN(CCc3c([nH]c4ccccc34)[C@@](C(=O)OC)(c3cc4c(cc3OC)N(C=O)[C@H]3[C@@](O)(C(=O)OC)[C@H](OC(C)=O)[C@]5(CC)C=CCN6CC[C@]43[C@@H]65)C2)C1 [VINCRISTINE]
8. Fc1ccc(C2=Nn3c(nnc3-c3cccnc3)SC2)cc1

[A]
1. 28.4
2. 24.3
3. 26.1
4. 23.8
5. 23.6
6. 17.4
7. 16.81
8. 18.4

Clc1ccc(C2=Nn3c(nnc3-c3cccnc3)SC2)cc1 has a reported Activity of 21.1
